system: PC-3; assay: Cytotoxicity against human PC-3 cells assessed as inhibition of cell growth incubated for 72 hrs by MTT assay; assay type: functional, cell-based; details: PC-3, 72 h
readout-type: IC50 (µM)
Number only, in µM; omit the unit.

Examples with their reported IC50 follow.
- sample-smiles: "CCCCCCCCCCCCCCC[C@H]1CC=CC(=O)O1"
  IC50, µM: 12.2
- sample-smiles: "CCCCCCCCCCCCCCC[C@@H]1C[C@@H]2C[C@@H](CC(=O)O2)O1"
  IC50, µM: 39.1
- sample-smiles: "CCCCCCCCCCCCCCC[C@@H]1OC(=O)C=C[C@@H]1O"
  IC50, µM: 3.7

We next turn to a different molecule, shown below.
Query :: Give recorded IC50 with PC-3 for the following molecule: "CCCCCC/C=C\CCCCCCC[C@H]1CC=CC(=O)O1"
Result :: 23.6
